test: HPLC assay of BVDU, BVDU metabolite and probenecid in mouse serum; format: in vivo, female Balb/c mice; conditions: mouse, in vivo, 100 mg/kg, Experiment 1, 30 mins after dosing, single 100 mg/kg dose of BVDU, read-out: HPLC Determinations BVDU Conc (µg/mL) in serum
Result Type: concentration at 0.5 h (µg/mL)
Respond with the bare value in µg/mL.

Q: Any idea what its concentration at 0.5 h is? The compound is O=c1[nH]c(=O)n([C@H]2C[C@H](O)[C@@H](CO)O2)cc1/C=C/Br
Ans: 38

---

experiment: HPLC assay of BVDU, BVDU metabolite and probenecid in mouse serum; assay type: in vivo, female Balb/c mice; settings: mouse, in vivo, 100 mg/kg, Experiment 2, 75 mins after dosing, single dose, BVDU 100 mg/kg alone or with probenecid 100 or 200 mg/kg, read-out: Concentration (µg/mL) in Serum BVDU
Result Type: concentration at 1.25 h (µg/mL)
Respond with the bare value in µg/mL.

Q: Any idea what its concentration at 1.25 h is? The compound is O=c1[nH]c(=O)n([C@H]2C[C@H](O)[C@@H](CO)O2)cc1/C=C/Br
Ans: 13

---

test: Plaque inhibition assay of sera from dosed mice (biological assay of antiviral activity in serum); format: cell-based, Herpes simplex type 1 virus; conditions: Experiment 1; 30 mins after dosing; single 100 mg/kg dose of BVDU; mouse serum; read-out: Antiviral activity in serum (BVDU equiv (µg/mL) ± Standard Deviation)
Result Type: concentration at 0.5 h (µg/mL)
Respond with the bare value in µg/mL.

Q: Any idea what its concentration at 0.5 h is? The compound is O=c1[nH]c(=O)n([C@H]2C[C@H](O)[C@@H](CO)O2)cc1/C=C/Br
Ans: 39.8

---

assay: HPLC assay of BVDU, BVDU metabolite and probenecid in mouse serum; format: in vivo, female Balb/c mice; conditions: Experiment 2, 30 mins after dosing, single dose, probenecid 200 mg/kg alone or 100 or 200 mg/kg with BVDU 100 mg/kg, read-out: Concentration (µg/mL) in Serum Probenecid
Result Type: concentration at 0.5 h (µg/mL)
Respond with the bare value in µg/mL.

Q: Any idea what its concentration at 0.5 h is? The compound is CCCN(CCC)S(=O)(=O)c1ccc(C(=O)O)cc1 [Probenecid]
Ans: 3.8

---

assay: HPLC assay of BVDU, BVDU metabolite and probenecid in mouse serum; format: in vivo, female Balb/c mice; conditions: mouse, in vivo, 100 mg/kg, Experiment 1, 85 mins after dosing, single 100 mg/kg dose of BVDU, read-out: HPLC Determinations BVDU Conc (µg/mL) in serum
Result Type: concentration at 85 min (µg/mL)
Respond with the bare value in µg/mL.

Q: Any idea what its concentration at 85 min is? The compound is O=c1[nH]c(=O)n([C@H]2C[C@H](O)[C@@H](CO)O2)cc1/C=C/Br [BVDU, E-5-(2-bromovinyl)-2'-deoxyuridine]
Ans: 3.9
